Assay: yeast display, Sf9 membrane polyspecificity reagent, FACS + sequencing; frameworks hold sequencing errors
assay readout: polyreactivity (PSR sort gate)

[[record]]
monomer_sequence = "QVQLVESGRGLVQAGGSLRISCAASGFIFSKYAMGWYRQAPGKERELVAAISYSGGSTYYADSVKGRFTISRDNAKNTVYLQMNSLKPEDTAVYYCAAEGYGGYEHWGQGTQVTVSS"
assay_readout = "polyreactivity (PSR sort gate)"
endpoint_value = "low polyreactivity"

[[record]]
monomer_sequence = "QVQLVESGGGLVQAGGSLRLSCAASGRTFVPYAMGWYRQAPGKEREFVAAISSRVGSTYYADSVKGRFTISRDNAKNTVYLQRNSLKPEDTAVYYCNAPFKPAGFYSAWKYDYWGQGTQVTVSS"
assay_readout = "polyreactivity (PSR sort gate)"
endpoint_value = "low polyreactivity"


* * *

Experiment: yeast display, Sf9 membrane polyspecificity reagent, FACS + sequencing; frameworks hold sequencing errors
assay readout: polyreactivity (PSR sort gate)

[[record]]
monomer_sequence = "QVQLVESGGGLVQAGGSLRLSCAASGLIFRPYAMGWYRQAPGKERELVAALTSGGSTDYADSVKGRFTISRDNAKNTVYLQMNSLKPEDTAVYYCNADIYPHDGYPWQGDYDYWGQGTQVTVSS"
assay_readout = "polyreactivity (PSR sort gate)"
endpoint_value = "low polyreactivity"

[[record]]
monomer_sequence = "QVQLEESGGGLDQAGGSLRLSCAASGSTYAYAMGWYRQAPRKERELVAAITRSGGSTYYADSVKGRFTISRDNAKNTVYLQMNSLKPEDTAVYYCRGKSTTWRGSQMDYWGQGTQVTVSS"
assay_readout = "polyreactivity (PSR sort gate)"
endpoint_value = "high polyreactivity"

[[record]]
monomer_sequence = "QVQLVESGGGLVQAGGSLRLSCAASGFIFAYNAMGWYRQAPGKERELVAAISWSGGSTYYADSVKGRFTISRDNAKNTVFLQMNSLLPEDTAVYYCAARYRRNKYYYWGQGTQVTVSS"
assay_readout = "polyreactivity (PSR sort gate)"
endpoint_value = "high polyreactivity"

[[record]]
monomer_sequence = "QVQLVESGGGLVQAAGRLRLSSAASGIIFYSYAMGWYRQAPGTEREFVAAITNSDGSTYYADSVKGRFTISRDNAKNTVYLQMYSLKPEDTAVYMYYWGQGTQVTVSS"
assay_readout = "polyreactivity (PSR sort gate)"
endpoint_value = "low polyreactivity"

[[record]]
monomer_sequence = "QVQLEESGGGLVQAGGSLRFSCAASGSTFLHYAMGWYRPAPGQERALVAAITWSGGSTYYADSVKGRFTISRDNAKNTVSLQMNSLKPEDTAVYYCAADLTYLYDYHYDYWGQGTQVTVSS"
assay_readout = "polyreactivity (PSR sort gate)"
endpoint_value = "low polyreactivity"

[[record]]
monomer_sequence = "QVQLVESGGGLVQAGGSLRFSCAASGSTFVRYPMGWYRQAPGKERELVAAITRSGGRTYYADSVKGRFTISRDNAKNTVYLQMNSLKPEDTAVYYCAADVSHVQGYDYWGQGTQVTVSS"
assay_readout = "polyreactivity (PSR sort gate)"
endpoint_value = "high polyreactivity"

[[record]]
monomer_sequence = "QVQHVESGGGLVQAGGSLRLSCAASGRTLRYYAMGGYRRAPGKERELVAAITKSGGSPYYADSVKGRFTISRDNAKNTVYLQMYSLKPEDTAVYYCNKVTYSRAQYIGGAGYYWGQGTQVTVSS"
assay_readout = "polyreactivity (PSR sort gate)"
endpoint_value = "high polyreactivity"

[[record]]
monomer_sequence = "QVQLVESGGVLVQSGGSLRLSCAASGSTFAYYAMGWYRQAPGKERELVAPISWSGGSTYYADSVKVRFTISRDNAKNTVYLQMNSLNPEDTAVYYCNKRNVLDYDYWGQGTQVTVSS"
assay_readout = "polyreactivity (PSR sort gate)"
endpoint_value = "low polyreactivity"

[[record]]
monomer_sequence = "QVQLVESGGGLVQAGGSLRLSCAASGYIFWFNAMGWYRQAPGKERELVAAITSSDASTNYADSVKGRFTISRDNAKNTVYLQMNSLKPEDTAVYYCAKSSYPRDGYESWGQGTQVTVSS"
assay_readout = "polyreactivity (PSR sort gate)"
endpoint_value = "low polyreactivity"

[[record]]
monomer_sequence = "QVQLVESGGGLVQAGGSLRLSCAASGIIFSFYTMGWYRQAPGKERELGAAITWSGGSTYYADSVKGRFTISRDNAKNTVYLQMNSLKPEDTAVYYCARSQAVYDGWFAKFGYWGQGTQVTVSS"
assay_readout = "polyreactivity (PSR sort gate)"
endpoint_value = "low polyreactivity"

[[record]]
monomer_sequence = "QVQLVESGGGLVQAGGSLRLSCAASGSTFRSNVMGWYRQAPGKAREFVAAITSSSATTYYADSVKGRFTISRDNAKNTVYLQMNSLKPEDTAVYYCAAGGRKAGPAGGQYYYWGQGTQVTVSS"
assay_readout = "polyreactivity (PSR sort gate)"
endpoint_value = "low polyreactivity"


* * *

Assay: yeast display, Sf9 membrane polyspecificity reagent, FACS + sequencing; frameworks hold sequencing errors
assay readout: polyreactivity (PSR sort gate)

[[record]]
monomer_sequence = "QVQLEESGGGLVQAGGSLRLSCASSGYIFATYAMGWYRQAPGKERELVAAITSTGSTYYADSVKGRFTISRDNAKNTVYLQMNSLKPEDTAVYYCAAVSGYRARYYLYYYWGQGTQVTVSS"
assay_readout = "polyreactivity (PSR sort gate)"
endpoint_value = "high polyreactivity"

[[record]]
monomer_sequence = "QVQLVEAGGGLVQAGGRLRLSCAASGSIFRRNAMGWYRQAPGTERELVASISSSGGSTYYADSVKGRFTLSRDNAMNTVYLQMNSLKPEDTAVYYCNAYRIRPGTPYGNGYYYWGQGTQVTGSS"
assay_readout = "polyreactivity (PSR sort gate)"
endpoint_value = "high polyreactivity"

[[record]]
monomer_sequence = "QVQLVESGGGLVQPGGSLRLSCSASGSIFRVYGMGWYRQAPGKERELVAAITWSGGSTYYADSVKGRFSISRDKAKNTVYLQQNSLKPEDTAVYYCAARARPRYYRPPYDYWGQGTQVTVSS"
assay_readout = "polyreactivity (PSR sort gate)"
endpoint_value = "high polyreactivity"

[[record]]
monomer_sequence = "QVQLVESGGGLVQAGGSLRLSCAASGNTFKYYAMGWYRQAPGKERELVAAISYSGGSTYYADSVKGRFTISRDNAKNTVYLLMNSLKPEVTAVYYCAADLDSERYYWGQGTQVTVSS"
assay_readout = "polyreactivity (PSR sort gate)"
endpoint_value = "low polyreactivity"

[[record]]
monomer_sequence = "QVQLVESGGRIVQAGGSLRLSCAASGRLFDRYAMGWYRQAPGQERELVAAISWSAGSTYYADSVKGRFTISRDNAKNTVYLQMNSLKPEDTAVYYCAVPARGTFLLRDGGRAEFDYWGQGTQVTVSS"
assay_readout = "polyreactivity (PSR sort gate)"
endpoint_value = "low polyreactivity"


* * *

Experiment: yeast display, Sf9 membrane polyspecificity reagent, FACS + sequencing; frameworks hold sequencing errors
assay readout: polyreactivity (PSR sort gate)

[[record]]
monomer_sequence = "QVQLVESGGGLVQAGGSLRLSCAASGRTFEGNAMGWYRQSPGKERELVAAIRWRGGRTYYADSVKGRFTISRDNAKNTVYLQLNSLNPEDTAVYYCAAAGLPPPDNDYWGQGTQVTVSS"
endpoint_value = "low polyreactivity"

[[record]]
monomer_sequence = "QVQLVESGGGLVQAGGSLRLSCAASGITFYEYAMGWYRQAPGKEREFVAAIDDGDSSTYYADSVKGRFTISRDNAKNTVYLQMNSLKPEDTAVYFCNADPYYDYSLNWGDYWGQGTQVTVSS"
endpoint_value = "low polyreactivity"

[[record]]
monomer_sequence = "QVQLVESGGGLVQAGGSLRLSCAASGRIFDIYAMGWYRQAPGKERELVAGITSVGSTNYADSVKGRFTISRDNAKNTVYLQMNSLKPEDTAVYYCAADTSVHSEVDYWGQGTQVTVSS"
endpoint_value = "low polyreactivity"

[[record]]
monomer_sequence = "QVQLVESGGGLDQAGGSLRLSCAASGITFQWYTMGWYIQAPGKERDLVATISSGGSTNYADSVKGRFTISRDNAKNTVYLQMKSLKPEDTAVYYCAKQPTVYHHYGLGYWGQGTQVTVSS"
endpoint_value = "low polyreactivity"

[[record]]
monomer_sequence = "QVQLVESGGGLVQAGGSLRLTCAASGRIFIYYAMGWYRQAPGKERELVAAISWGGGRTYYADSVKGRFTISRDNAKNTVYLQMNSLKPEDTAVYYCAAGVYTGQHEYDYWGQGTQVTVSS"
endpoint_value = "low polyreactivity"

[[record]]
monomer_sequence = "QVQLVESGGGLVQAGGSLRVSCAASGSIFKIYAMGWYRLAPGKERELVASITGSGGSTYYADSVKGRFTISRDNAKNTVYLQRNCLKPEDTAVYYCAAAVLGSSKSEVDPDRPEYYYWGQGTQVTVSS"
endpoint_value = "low polyreactivity"

[[record]]
monomer_sequence = "QVQLVESGGGLVQAGGSLRLSCAASMGWYRQAPGKERELVAAITTRTGTTYYADSVKGRFTISRDNAKNTVYLQMNSLKPEDTAVYYCSKRGYYRYYYWGQGTQVTVSS"
endpoint_value = "high polyreactivity"

[[record]]
monomer_sequence = "QVQLVESGGGLVQAGGSLRLSCAASGSIFLVYAMGWYRQAPGKERELVAAISQRVGRTYYADSVKGRFTISRDNAKNTVYLQMNSLKPEDTAVYYCNARVYDPTRGFNYWGQGTQVTVSS"
endpoint_value = "high polyreactivity"

[[record]]
monomer_sequence = "QVQLVESGGGLVQAGGSLRLSCAASGSIFFRYAMGWYRQAPGKERELVAAISDSGGTTYYADSVKGRFTISRDNAKNTVYLQMNSLKPEDTAVYYCAARFIYYSNRYYRYREFNYWGQGTQVTVSS"
endpoint_value = "high polyreactivity"

[[record]]
monomer_sequence = "QVQLVESGGGLVQAGGSLRLSCAASGNIFGKNVMGWYRQAPGKEREFVAAITSRGGRTNYADSVKGRFTISRDNAKNTVYLQMNSLKPEDTAVYYCAKDKNYPSGYGYWGQGTQVTVSS"
endpoint_value = "high polyreactivity"

[[record]]
monomer_sequence = "QVQLVESCGGIVQAGGSLRLRCAASGLIFVANAMGWYRQAPVKESEMVAAISRYGGITYYADSVKGRFTISRDNAKNTVYLEMNSLKPEDTAVYYCAKNLPSNGHYDYWGQGTQVTVSS"
endpoint_value = "low polyreactivity"

